The following compounds are listed with their measured boiling point values.

compound: CCCCCCCCCCCCCCCCCCCCCCCCC
boiling point (°C): 402
--
compound: CC1(C)CC1
boiling point (°C): 20.6
--
compound: CC(F)=C(Cl)Cl
boiling point (°C): 78
--
compound: CN(C)CCCO
boiling point (°C): 164
--
compound: CCC(C)C(C)C (configuration not stated)
boiling point (°C): 89.7
--
compound: CC(C)(C)C#N
boiling point (°C): 106
--
compound: C[Si](C)(C)CBr
boiling point (°C): 116
--
compound: CCCCOC(=O)CC(=O)OCCCC
boiling point (°C): 252
--
compound: c1ccc2c(c1)CCN2
boiling point (°C): 229
--
compound: c1ccccc1
boiling point (°C): 80
--
compound: CCCCN1CCCCC1
boiling point (°C): 176
--
compound: O=C(O)C1CCCCC1
boiling point (°C): 232
--
compound: C=CCI
boiling point (°C): 103
--
compound: CC1CCCC1=O (configuration not stated)
boiling point (°C): 140
--
compound: CCC(C)(C)c1cc(C)cc(C(C)(C)CC)c1O
boiling point (°C): 283
--
compound: CCCCCC(=O)CC
boiling point (°C): 168
--
compound: CC(Cl)=C(Cl)Cl
boiling point (°C): 118

====

Item-by-item account of melting point

compound: Nc1ccc(C2CCCCC2)cc1
melting point: 54.5 °C
//
compound: O=C(c1ccccc1)c1ccc(C(F)(F)F)cc1
melting point: 115 °C
//
compound: CC1=NN(c2ccc([N+](=O)[O-])cc2)C(=O)C1[N+](=O)[O-] (stereo unspecified)
melting point: 116 °C
//
compound: CCN(CC)c1ccc([N+](=O)[O-])cc1
melting point: 77.5 °C
//
compound: CCN(CC)c1nc(Cl)nc(N(CC)CC)n1
melting point: 27 °C
//
compound: ClCC1C(CCl)C2(Cl)C(Cl)=C(Cl)C1(Cl)C2(Cl)Cl (stereo unspecified)
melting point: 105 °C
//
compound: CCCCCCC(C)=O
melting point: -16 °C
//
compound: O=C(c1ccccc1)c1ccccn1
melting point: 42 °C
//
compound: CC(C)(C)c1ccc(Br)cc1
melting point: 19 °C
//
compound: CCc1c(CC)c(CC)c(CC)c(CC)c1CC
melting point: 129 °C
//
compound: CC1(C)[C@H](C(=O)O[C@H](C#N)c2cccc(Oc3ccccc3)c2)[C@@H]1/C=C(\Cl)C(F)(F)F (single isomer, unassigned)
melting point: 49.2 °C
//
compound: CN(C)c1cccc2c(S(=O)(=O)Cl)cccc12
melting point: 70 °C
//
compound: OCCn1ccnc1
melting point: 39 °C
//
compound: CCCC1CCCCC1
melting point: -94.9 °C
//
compound: C[C@@H]1C[C@@H]([C@H](O)CC2CC(=O)NC(=O)C2)C(=O)[C@@H](C)C1
melting point: 119 °C
//
compound: O=c1[nH]c(=O)n([C@H]2CC[C@@H](CO)O2)cc1Br
melting point: 180 °C
//
compound: Cc1ccc(Cl)cc1
melting point: 7.5 °C
//
compound: CC#C[C@]1(O)CC[C@H]2[C@@H]3C[C@H](C)C4=CC(=O)CC[C@]4(C)[C@H]3CC[C@@]21C
melting point: 102 °C
//
compound: C=CF
melting point: -160 °C
//
compound: CCOc1ccc(F)cc1
melting point: -8.5 °C
//
compound: CCCCC(CC)CNCC(CC)CCCC (stereo unspecified)
melting point: -60 °C
//
compound: COc1ccc(C(=O)c2ccccc2C(=O)O)cc1
melting point: 146 °C
//
compound: Brc1sc(Br)c(Br)c1Br
melting point: 118 °C
//
compound: c1coc(CSSCc2ccco2)c1
melting point: 10 °C
//
compound: CCN(CC)C(=O)c1cccnc1
melting point: 25 °C
//
compound: COC(=O)C(C)Oc1ccc(Oc2ccc(Cl)cc2Cl)cc1 (stereo unspecified)
melting point: 40 °C
//
compound: C1=CCCCC1
melting point: -104 °C
//
compound: CC(=O)C(C)O (stereo unspecified)
melting point: 15 °C
//
compound: CCOC(=O)CCCCCCC(=O)OCC
melting point: 5.9 °C
//
compound: N#CCNCC#N
melting point: 70 °C
//
compound: CC1(C)C2C=C[C@]1(C)CC2
melting point: 113 °C
//
compound: O=[N+]([O-])c1cccc2cccc(Cl)c12
melting point: 95.8 °C
//
compound: CC(C)(C)CC(C)(C)c1ccc(O)cc1
melting point: 84.5 °C
//
compound: OCC1CCC(CO)CC1 (stereo unspecified)
melting point: 51 °C
//
compound: CC(=NO)C(C)=NO
melting point: 246 °C
//
compound: Cl.ClCCN(Cc1ccccc1)Cc1ccccc1
melting point: 192 °C
//
compound: CC=C(CC)C(C)C(=O)CC (stereo unspecified)
melting point: 74.5 °C
//
compound: N#CCCCCCCC#N
melting point: -3.5 °C
//
compound: CC(=O)Nc1ccccc1Cl
melting point: 89 °C
//
compound: COc1ccc(C(=CC(=O)N2CCOCC2)c2ccc(Cl)cc2)cc1OC
melting point: 148 °C
//
compound: O=C(Oc1ccccc1)n1c(C(F)(F)F)nc2cc(Cl)c(Cl)cc21
melting point: 103 °C

====

Returns one of YES or NO; YES when melting point is >= -50 °C.

given.smiles: CCCCCCCCCCO
cat: YES

given.smiles: O=C1CCCCCC1=O
cat: YES

given.smiles: CCCCC(CC)CC
cat: NO

given.smiles: CCCCCCCC/C=C\CCCCCCCC(=O)OCCCC
cat: YES

given.smiles: CC1(C)CC1
cat: NO

given.smiles: Cc1cc(-c2ccc(N)c(C)c2)ccc1N
cat: YES

given.smiles: O=c1cc(-c2ccccc2)oc2ccccc12
cat: YES

given.smiles: c1ccc2c(c1)CCCN2
cat: YES

given.smiles: C[Si](C)(C)O[Si](C)(C)O[Si](C)(C)O[Si](C)(C)C
cat: NO

given.smiles: FC(F)F
cat: NO

given.smiles: CCC#CCCC
cat: NO

given.smiles: CCc1cccc(Cl)c1
cat: NO

====

given.smiles: Fc1c(F)c(F)c(Cl)c(F)c1F
log10 vapour pressure (mmHg): 1.25
--
given.smiles: CCN(C(=O)n1nnn(-c2ccccc2Cl)c1=O)C1CCCCC1
log10 vapour pressure (mmHg): -9.43
--
given.smiles: Cc1ccc(CCl)cc1
log10 vapour pressure (mmHg): -0.527
--
given.smiles: CCCCCCCN
log10 vapour pressure (mmHg): 0.438
--
given.smiles: CCN(CC)C(=O)c1cccc(C)c1
log10 vapour pressure (mmHg): -2.7
--
given.smiles: CNC(=O)Oc1ccc(C)c(C)c1
log10 vapour pressure (mmHg): -3.24
--
given.smiles: CCCCCCCCCCCCCCCCCC(=O)OC(C)C
log10 vapour pressure (mmHg): -4.4
--
given.smiles: CNC(=O)Oc1cc(C)cc(C)c1
log10 vapour pressure (mmHg): -3.44
--
given.smiles: C1=CC2CCC1C2
log10 vapour pressure (mmHg): 1.59
--
given.smiles: CCCCCCCCCCCCCCCCCCCCCCCCCCC
log10 vapour pressure (mmHg): -6.55

====

given.smiles: N#CC(c1ccccc1)c1ccccc1
melting point [°C]: 74.3
--
given.smiles: COc1ccc(Cl)nn1
melting point [°C]: 84.5
--
given.smiles: CC(=O)NC(N)=S
melting point [°C]: 165

====

Recorded melting point by entry

molecule: CCOC1Oc2ccc(OS(C)(=O)=O)cc2C1(C)C (centres undefined)
melting point [°C]: 71
//
molecule: C[C@H](NC(=O)[C@H](C)NC(=O)[C@@H](N)CCP(C)(=O)O)C(=O)[O-].[Na+]
melting point [°C]: 160
//
molecule: NCc1cc(O)no1
melting point [°C]: 175
//
molecule: CCCCCCCCCCCCCCCCCC(=O)OCC(O)CO (centres undefined)
melting point [°C]: 74
//
molecule: c1ccc(-c2ccc3ccccc3n2)cc1
melting point [°C]: 86
//
molecule: CC(=O)c1ccccc1C(=O)O
melting point [°C]: 114
//
molecule: CCC(C)(c1ccc(O)cc1)c1ccc(O)cc1
melting point [°C]: 120
//
molecule: O=[N+]([O-])c1cc(Cl)cc(Cl)c1
melting point [°C]: 65.4
//
molecule: OC[C@@H](O)[C@@H](O)CO
melting point [°C]: 122

====

boiling point for assorted molecules

molecule: Fc1ccc(F)c(F)c1
boiling point / °C: 90
//
molecule: CCCCCCCCCC(C)=O
boiling point / °C: 232
//
molecule: Cn1ccccc1=O
boiling point / °C: 250
//
molecule: CCN(CC)c1cccc2ccccc12
boiling point / °C: 285
//
molecule: C/C=C/C=O
boiling point / °C: 103
//
molecule: CCCCCCCCCCCCI
boiling point / °C: 298
//
molecule: CC(C)c1cccc2ccccc12
boiling point / °C: 268
//
molecule: C=CCC(C(C)=O)C(C)=O
boiling point / °C: 199
//
molecule: CC1(CCl)CO1 (configuration not stated)
boiling point / °C: 122
//
molecule: Fc1nc(F)c(Cl)c(F)n1
boiling point / °C: 114
//
molecule: CCCCCCCC(C)C
boiling point / °C: 167
//
molecule: CC(=O)Nc1ccc(N)cc1
boiling point / °C: 267
//
molecule: CC=Cc1ccccc1
boiling point / °C: 177
//
molecule: c1ccc(CCCCc2ccccc2)cc1
boiling point / °C: 317
//
molecule: Clc1ccc(Cc2ccccc2)cc1
boiling point / °C: 299
//
molecule: CS
boiling point / °C: 5.9
//
molecule: C/C=C/C(=O)OC
boiling point / °C: 120
//
molecule: O=Cc1ccc(Cl)cc1Cl
boiling point / °C: 233
//
molecule: CC(O)c1ccco1 (configuration not stated)
boiling point / °C: 162
//
molecule: C=CC(=C)C
boiling point / °C: 34
//
molecule: C/C=N/O
boiling point / °C: 115
//
molecule: Cc1ccccc1CN
boiling point / °C: 206
//
molecule: O=C(CCl)OC(=O)CCl
boiling point / °C: 203
//
molecule: C=C(C)c1ccccc1C
boiling point / °C: 175
//
molecule: Cc1ccc(F)cc1
boiling point / °C: 117
//
molecule: c1ccc2c(c1)CCCN2
boiling point / °C: 251
//
molecule: NCC(F)(F)C(F)(F)F
boiling point / °C: 49
//
molecule: BrC(Br)=C(Br)Br
boiling point / °C: 226
//
molecule: CC(C)(C)OC=O
boiling point / °C: 82.5
//
molecule: C1CCC2NC2C1 (configuration not stated)
boiling point / °C: 150
//
molecule: CCCCCCCCCCCCCCCC#N
boiling point / °C: 333
//
molecule: CCSc1ccccc1
boiling point / °C: 205
//
molecule: O=C=S
boiling point / °C: -50
//
molecule: CC(C)COC(C)OCC(C)C
boiling point / °C: 171
//
molecule: CC(=O)OCC(C)OC(C)=O (configuration not stated)
boiling point / °C: 190
//
molecule: CC(C)CCCBr
boiling point / °C: 145
//
molecule: Nc1cccnc1
boiling point / °C: 252
